- EXPERIMENTAL_TARGET: panel of more than 300 wild-type and mutant kinases (313 kinase panel) (Homo sapiens)
- Sequence (P52564 whole entry, change not shown): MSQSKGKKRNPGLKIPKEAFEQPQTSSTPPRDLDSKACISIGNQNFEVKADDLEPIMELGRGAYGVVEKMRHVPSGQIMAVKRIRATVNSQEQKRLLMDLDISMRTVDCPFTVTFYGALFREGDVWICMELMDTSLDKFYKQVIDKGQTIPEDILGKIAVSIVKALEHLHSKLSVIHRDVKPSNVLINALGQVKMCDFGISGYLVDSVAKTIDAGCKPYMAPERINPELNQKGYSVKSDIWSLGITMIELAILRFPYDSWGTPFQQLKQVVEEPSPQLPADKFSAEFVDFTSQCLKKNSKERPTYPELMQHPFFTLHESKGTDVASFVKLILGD
- ASSAY_COMMENT: Kinase profiling in a biochemical assay panel (mobility shift assays and ELISA), %-inhibition at 1 μM; selectivity entropy
- CONDITION: kinase MAP2K6; compound at 1 μM
Class boundaries, taken from values of %-inhibition of MAP2K6, are as follows: low (below 20%), intermediate (20% to below 50%), high (50% or more)

Ask | Could you tell me which band `C[C@@H](Oc1cc(-c2cnn(C3CCNCC3)c2)cnc1N)c1c(Cl)ccc(F)c1Cl` belongs to?
Reply | low

Ask | Could you tell me which band `CC(C)(C)c1nc(-c2cccc(NS(=O)(=O)c3c(F)cccc3F)c2F)c(-c2ccnc(N)n2)s1` belongs to?
Reply | low

Ask | Could you tell me which band `Cc1cn(-c2cc(NC(=O)c3ccc(C)c(Nc4nccc(-c5cccnc5)n4)c3)cc(C(F)(F)F)c2)cn1` belongs to?
Reply | high

Ask | Could you tell me which band `CO[C@H]1C[C@@H]2CC[C@@H](C)[C@@](O)(O2)C(=O)C(=O)N2CCCC[C@H]2C(=O)O[C@H]([C@H](C)C[C@@H]2CC[C@@H](OC(=O)C(C)(CO)CO)[C@H](OC)C2)CC(=O)[C@H](C)/C=C(\C)[C@@H](O)[C@@H](OC)C(=O)[C@H](C)C[C@H](C)/C=C/C=C/C=C/1C` belongs to?
Reply | low

Ask | Could you tell me which band `N#CC[C@H](C1CCCC1)n1cc(-c2ncnc3[nH]ccc23)cn1` belongs to?
Reply | intermediate
